Listed here: items and their measured EC50.
- measurement-target: Sin Nombre virus (SNV) glycoproteins Gn and Gc displayed on the surface of Expi293F cells transfected with … (Sin Nombre virus)
- assay-explanation: flow
Write it as a number; the unit ng/mL goes unstated.

>>> numeric_value("SNV-66 (antibody, V domains shown) VH: QVRLVESGGGVVQPGRSLRLSCAASGFTFRSYGMHWVRQAPGKGLEWVALISLDGSEKHYADSVKGRLTISRDNSKNMLYLQMNNLRVEDTAVYYCAKDRPYSWRDVLDYWGQGTLVTVSS VL: DIQMTQSPSSLSASVGDRVTITCRASRDIHTSLNWYQHTPGKAPELLIYAASTLEMGVPSRFSGSGSGTDFTFTISSLQPEDIATYYCQQYDELPLTFGGGTKVEMK")
7.7

Consider the record given below.
Prompt line: Specify measured EC50 for SNV-25 (antibody, V domains shown) VH: QVQLQESGPGLVKPSGTLSLTCAVSGGSISSSNWWSWVRQPPGKGLEWIGEIYHSGSTNYNPSLKSRATISVDKSKNQFSLKLSSVTAADTAFYYCARARGEWLAHFDYWGQGTLVTVSS VL: DIQMTQSPSTLSASVGDRVTITCRASQSISRWLAWYQQKPGKAPKLLIYKASSLESGVPSRFSGSGSGTEFTLTISSLQPDDFAIYYCQQYNTDKTFGQGTKVEIK .
Response line: 7.2

Origin of measurements: patent US20220380442A1
